System: MALME-3M melanoma
Assay: NCI tumour cell line growth inhibition, 48 h
Where a SMILES comes first, the peptide text is derived from it. [ ]: non-standard residue; d: D form. pGlu = O=C1CC[CH](C(=O)O)N1
result.type: GI50

Solved cases below.
compound: C=CCN=c1sc2c(n1NC(=O)c1cc3ccc1CCc1ccc(cc1)CC3)C(=O)c1ccccc1C2=O
target.desc: MALME-3M melanoma
GI50: 0.383 µM
--
compound: N.N.N.N.N.NC(=O)c1nn[n-]n1.[Cl-].[Co+3]
target.desc: MALME-3M melanoma
GI50: > 100 µM
--
compound: COc1ccc(-c2nn(-c3cccc(Cl)c3)cc2-c2cc(-c3cccs3)[nH]c(=S)n2)cc1
target.desc: MALME-3M melanoma
GI50: 3.49 µM

Give one value of GI50 per listed compound.
1. CCNC(=O)C1CCCN1C(=O)C(CCCN=C(N)N)NC(=O)C(CC(C)C)NC(=O)C(CC(C)C)NC(=O)C(Cc1ccc(O)cc1)NC(=O)C(CO)NC(=O)C(Cc1c[nH]c2ccccc12)NC(=O)C(Cc1cnc[nH]1)NC(=O)C1CCC(=O)N1 (stereo not given) ([pGlu]HWSYLLRP-NHEt; configuration not given here)
2. COc1ncnc2c(-c3ccccc3)cn(COCc3ccccc3)c12
3. CN1CCC2(CC1)ONC1=NCCN12
4. CCCCON(OC(=O)c1ccc2ccccc2c1)C(=O)c1ccccc1
5. N#Cc1ccc(OCc2nc(N)nc(N)c2-c2ccc(Cl)c(Cl)c2)cc1

> 100 µM
2.52 µM
20.1 µM
> 100 µM
23.5 µM

Give one value of GI50 per listed compound.
1. COC(=O)c1ccc(-c2nc3cc(Cl)c(Cl)cc3nc2C#N)cc1
2. CC[C@@H]1c2c(C#N)ncn2-c2cnc(Nc3ccc(C(=O)NC4CCN(C5CCN(CC6CC6)CC5)CC4)cc3OC)nc2N1C1CCCC1

["> 100 µM", "0.0853 µM"]

----------
Test system: HOP-92 NSCLC
Experiment: NCI tumour cell line growth inhibition, 48 h; in the data active = GI50 below about 0.43 µM; inactive = the rest
Return exactly one item of active, inactive

Known results for compounds:
compound: CC[C@@H]1c2c(C#N)ncn2-c2cnc(Nc3ccc(C(=O)NC4CCN(C5CCN(CC6CC6)CC5)CC4)cc3OC)nc2N1C1CCCC1
category: active

compound: C/C=C(\C)C(=O)NC1=CC[C@@]2(C)C(=CCC3C2CC[C@@]2(C)C3CC[C@@H]2C(C)N(C)C)C1=O (some centres not stated)
category: inactive

compound: CCN(Cc1ccc(Cl)cc1)c1ccc(CO)c(Cl)c1
category: inactive

compound: C[C@@]1(C(=O)O)CCC[C@]2(C)C1CC[C@@]13CC(=O)[C@@](CO)(CC[C@]12O)C3 (some centres not stated)
category: inactive

compound: CCOC(=O)c1c(C)nc2c(c1N)CC(=O)N2Cc1ccc(OC)cc1
category: inactive

compound: CC(=O)NC1C(OC[C@@H](CC(=O)N[C@@H](CC(=O)O)CC(=O)N[C@H](CC(=O)N[C@@H](CCCN)CC(=O)N[C@@H](CCCN)CC(=O)N[C@H](CC(N)=O)C(C)C)C(C)C)NC(=O)C[C@@H](N)C(C)C)OC(CO)C(O)C1O (some centres not stated)
category: inactive

Proceed to the following item.
Call for entry `C=CCN=c1sc2c(n1NC(=O)c1cc3ccc1CCc1ccc(cc1)CC3)C(=O)c1ccccc1C2=O` :
inactive

----------
System: DMS 114 small cell lung
Experiment: NCI tumour cell line growth inhibition, 48 h
Exercise: for every item that follows, state its recorded TGI.

Solved cases below.
compound: CCN(CC)CCNc1ccc2nnn3c4ccc(C)cc4c(=O)c1c23
observed.value: 21.3 µM
--
compound: CC(=O)c1ccc2c(c1)c1c(C)c3c[n+](C)ccc3c(C)c1n2C
observed.value: 25.6 µM
--
compound: O=C1NC2=C(CCCC/C2=N\O)C12CCCCC2
observed.value: > 100 µM
--
compound: CC(C)=CC1C[C@H](C2CC=C3C2(C)CCC2[C@@]3(C)C(=O)CC3[C@]2(C)C=CC(=O)[C@]3(C)CO)CO1 (stereo partly specified)
observed.value: 15.9 µM

Give one value of TGI per listed compound.
1. NCCCOc1ccc([N+](=O)[O-])cc1Cl
2. O=C(COc1ccc(Cl)cc1)N1N=C(c2ccc(Cl)cc2)CC1(O)c1ccccc1 (stereo unspecified)
3. Cc1cc(CC(=O)NCCO)n(CCO)c(=O)c1
4. COc1ccc(/C=N/N=C(\N)NO)cc1O
5. CN(/N=C/c1cccc2cccnc12)c1ccc([N+](=O)[O-])cc1[N+](=O)[O-]
6. c1coc(CNc2ncnc3[nH]ncc23)c1
7. CSC(=Nc1nnc(-c2ccc([N+](=O)[O-])cc2)s1)SC

["> 100 µM", "> 100 µM", "> 100 µM", "> 100 µM", "> 61.9 µM", "> 100 µM", "> 82 µM"]

----------
Tested on: HCC-2998 colon
Experiment: NCI tumour cell line growth inhibition, 48 h
Exercise: for every item that follows, state its recorded TGI.

Solved cases below.
compound: CC(=O)c1ccc2c(c1)c1c(C)c3c[n+](C)ccc3c(C)c1n2C
observed.value: > 100 µM
--
compound: O=c1ccn2n1Cc1ccccc1C2
observed.value: > 100 µM
--
compound: CC[C@H](CCCC[C@H]1CC[C@@H]2CC(=O)C[C@H]12)OC
observed.value: > 100 µM

Give one value of TGI per listed compound.
1. Cc1cc(CC(=O)NCCO)n(CCO)c(=O)c1
2. NS(=O)(=O)c1ccc(-n2nc(-c3ccc(Cl)cc3)cc2-c2cc(O)ccc2O)cc1
3. N#CN=[N+]([O-])c1ccc(C(=O)O)cc1
4. CN1CN(c2ccccc2)C2(CCN(Cc3csc4ccccc34)CC2)C1=O
5. [N-]=[N+]=NC(CCl)c1cn([C@H]2C[C@H](O)[C@@H](CO)O2)c(=O)[nH]c1=O (stereo partly specified)
6. NC(=O)C(=O)N/N=C1\C(=O)N(c2ccc(Cl)cc2Cl)C(=O)C1C(=O)Nc1ccc(Cl)cc1Cl (stereo unspecified)
7. COc1ccc2nc3cc(Cl)ccc3c(NCCNC(=O)Cn3c(=O)n(C)c(=O)c4c3nc3c(c(=O)n(C)c(=O)n3C)[n+]4[O-])c2c1
8. O=C1C(Cl)=C(Nc2cccc(F)c2)C(=O)N1Cc1ccc(Cl)cc1

["> 100 µM", "31.2 µM", "> 100 µM", "42.5 µM", "> 100 µM", "> 100 µM", "> 100 µM", "4.88 µM"]

----------
Exercise: for every item that follows, state its recorded TGI.
System: LOX IMVI melanoma
Assay: NCI tumour cell line growth inhibition, 48 h

compound: CCN(CC)c1c(C(=O)/C=C/c2ccc(Cl)cc2)c(-c2ccccc2)nn(C)c1=O
target.desc: LOX IMVI melanoma
TGI: 3.48 µM

compound: C[C@]12CC[C@@H]3c4ccc(O)cc4CC[C@H]3[C@@H]1CC[C@@H]2OP(=O)(O)O
target.desc: LOX IMVI melanoma
TGI: > 100 µM

compound: COc1ccc(/C=N/N=C(\N)NO)cc1O
target.desc: LOX IMVI melanoma
TGI: > 100 µM

compound: CCCCCCCCNc1cc2c3c(c1)CCCN3CCC2
target.desc: LOX IMVI melanoma
TGI: 28.5 µM

compound: Fc1ccc(Oc2nc3ccc(C(F)(F)F)cc3nc2-c2ccccc2)cc1
target.desc: LOX IMVI melanoma
TGI: > 100 µM

Give one value of TGI per listed compound.
1. O=C1N=C(SC(SC2=NC(=O)C3(NN2)c2ccccc2-c2ccccc23)=C(SC2=NC(=O)C3(NN2)c2ccccc2-c2ccccc23)SC2=NC(=O)C3(NN2)c2ccccc2-c2ccccc23)NNC12c1ccccc1-c1ccccc12
2. COC(=O)/C=C\COCC1C2CCC(=O)C21 (centres undefined)
3. Cc1ccc2nc(Cl)c(/C=N/N3C(=O)/C(=C/c4cccc([N+](=O)[O-])c4)N=C3c3ccccc3)cc2c1
4. O=C1NC2=C(CCCC/C2=N\O)C12CCCCC2

> 10 µM
> 25 µM
> 100 µM
> 100 µM

----------
Exercise: for every item that follows, state its recorded TGI.
Test system: MOLT-4 leukemia
Assay: NCI tumour cell line growth inhibition, 48 h

Solved cases below.
compound: O=C(NCCCCNc1cccccc1=O)OCc1ccccc1
TGI: > 100 µM
//
compound: CC1(C)CC(C2=NCCO2)CC(C)(C)N1
TGI: > 100 µM
//
compound: O=C(O)CCCSC(=O)Nc1ccc(N=Nc2ccccc2)cc1
TGI: > 100 µM
//
compound: Cc1ccc2c(c1)C(=O)N(N(C)C)CC(=O)N2
TGI: > 100 µM
//
compound: CN1C2=C(CC3=C1CC(C)(C)CC3=O)C(=O)CC(C)(C)C2
TGI: > 100 µM

Give one value of TGI per listed compound.
1. N.N.N.N.N.NC(=O)c1nn[n-]n1.[Cl-].[Co+3]
2. CCN(CC)CCNc1ccc2nnn3c4ccc(C)cc4c(=O)c1c23
3. CCN(CC)c1c(C(=O)/C=C/c2ccc(Cl)cc2)c(-c2ccccc2)nn(C)c1=O
4. N#CC(C#N)=C1c2ccccc2C(=NN)c2ccccc21
5. CC(=O)NC1C(OC[C@@H](CC(=O)N[C@@H](CC(=O)O)CC(=O)N[C@H](CC(=O)N[C@@H](CCCN)CC(=O)N[C@@H](CCCN)CC(=O)N[C@H](CC(N)=O)C(C)C)C(C)C)NC(=O)C[C@@H](N)C(C)C)OC(CO)C(O)C1O (stereo not given in full)

1: > 100 µM; 2: 12.2 µM; 3: 5.06 µM; 4: > 100 µM; 5: > 100 µM
